Where do these numbers come from? They come from paper PMC4336329.

target: human ether-à-go-go-related gene (hERG) potassium channel (human); experiment: primary screen, population patch clamp on CHO cells stably expressing hERG; higher = less effect of the substance
Sequence (Q12809 whole entry, looked up): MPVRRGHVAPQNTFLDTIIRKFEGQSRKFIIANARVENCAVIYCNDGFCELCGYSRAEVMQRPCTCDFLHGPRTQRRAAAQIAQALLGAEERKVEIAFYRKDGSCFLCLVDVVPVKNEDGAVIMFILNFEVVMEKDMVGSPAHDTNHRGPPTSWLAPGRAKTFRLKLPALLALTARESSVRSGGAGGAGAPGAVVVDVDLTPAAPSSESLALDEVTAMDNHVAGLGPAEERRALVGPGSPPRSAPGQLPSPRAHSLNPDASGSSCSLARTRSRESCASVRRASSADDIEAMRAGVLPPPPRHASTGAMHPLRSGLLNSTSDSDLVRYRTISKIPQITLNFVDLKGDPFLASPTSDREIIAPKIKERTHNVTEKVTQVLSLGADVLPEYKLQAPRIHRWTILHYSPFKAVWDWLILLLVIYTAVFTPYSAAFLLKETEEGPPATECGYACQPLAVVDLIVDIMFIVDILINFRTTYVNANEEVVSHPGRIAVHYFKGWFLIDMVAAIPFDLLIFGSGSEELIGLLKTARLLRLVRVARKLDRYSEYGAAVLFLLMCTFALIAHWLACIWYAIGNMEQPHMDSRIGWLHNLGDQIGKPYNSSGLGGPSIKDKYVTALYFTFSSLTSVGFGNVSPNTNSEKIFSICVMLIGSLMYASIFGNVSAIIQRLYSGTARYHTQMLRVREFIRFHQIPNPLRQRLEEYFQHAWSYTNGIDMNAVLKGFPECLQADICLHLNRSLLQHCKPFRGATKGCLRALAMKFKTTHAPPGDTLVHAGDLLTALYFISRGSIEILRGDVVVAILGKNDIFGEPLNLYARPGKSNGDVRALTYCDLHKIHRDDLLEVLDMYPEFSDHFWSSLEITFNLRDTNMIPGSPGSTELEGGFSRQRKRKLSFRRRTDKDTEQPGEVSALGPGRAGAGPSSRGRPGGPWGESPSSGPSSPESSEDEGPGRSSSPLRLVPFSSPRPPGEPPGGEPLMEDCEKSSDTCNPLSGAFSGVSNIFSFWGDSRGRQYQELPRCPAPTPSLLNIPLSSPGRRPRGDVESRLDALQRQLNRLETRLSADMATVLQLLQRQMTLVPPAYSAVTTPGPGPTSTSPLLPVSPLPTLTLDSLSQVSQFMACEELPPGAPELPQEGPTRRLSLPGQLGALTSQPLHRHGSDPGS
Screen size: about 310,000 compounds; about 2,200 (0.71%) showed an effect of 50% or more. Effects have a minus sign here. This is one part of a sample in which strong results are shown more often than they occur.
READOUT: hERG current change (%, negative = inhibition) at 1uM (%)
Answers are plain numbers, in %.

Here is how some compounds turned out for hERG current change (%, negative = inhibition) at 1uM.
{"COMPOUND": "COc1ccc(OCC(O)CN(C)C(=O)/C=C/c2cccc([N+](=O)[O-])c2)cc1 (centres unmarked)", "QUANTITATIVE_RESULT": -56.7}
{"COMPOUND": "CN(C)S(=O)(=O)N1CCN(c2ccnc3cc(Cl)ccc23)CC1", "QUANTITATIVE_RESULT": -65.6}
{"COMPOUND": "Cc1nccn1CC(O)COc1ccc([N+](=O)[O-])cc1 (centres unmarked)", "QUANTITATIVE_RESULT": -41.3}
{"COMPOUND": "O=C(NCC1CCCO1)C(c1ccncc1)N(Cc1ccc(F)cc1)C(=O)CN1C(=O)c2ccccc2S1(=O)=O (centres unmarked)", "QUANTITATIVE_RESULT": -51.2}

Look at each compound and report its hERG current change (%, negative = inhibition) at 1uM.
1. Oc1ccc(N2CCN(c3ccnc4cc(Cl)ccc34)CC2)cc1
2. O=C(NCC1CCCO1)C(c1ccco1)N(Cc1ccc(F)cc1)C(=O)CN1C(=O)c2ccccc2S1(=O)=O (centres unmarked)
3. Cl.ClCCN1CCN(c2ccnc3cc(Cl)ccc23)CC1
4. COc1cccc(C(C(=O)NCC2CCCO2)N(CC2CCCO2)C(=O)CN2C(=O)c3ccccc3S2(=O)=O)c1 (centres unmarked)

5.36
8.75
7.03
12.5

###

molecular target: human ether-à-go-go-related gene (hERG) potassium channel (human); experiment: primary screen, population patch clamp on CHO cells stably expressing hERG; higher = less effect of the substance
The whole screen tested about 310,000 compounds, of which about 2,200 (0.71%) showed an effect of 50% or more. Effects have a minus sign here. The sample holds strong results, similar compounds and a random draw of the others, so the mix is not that of the screen.
Use -10% as the dividing line for hERG current change (%, negative = inhibition) at 1uM, with the line itself on the T side and lower values as F.

Below, 5 compounds whose answers are already recorded.
{"COMPOUND": "O=C(NC1CC1)c1ccc2snnc2c1", "CATEGORY_LABEL": "T"}
{"COMPOUND": "COc1ccc(NC(=O)CN2C(=O)C(C)SC(C)C2=O)cc1 (centres unmarked)", "CATEGORY_LABEL": "T"}
{"COMPOUND": "CC1CCN(CC(O)COc2ccc(F)cc2)CC1 (centres unmarked)", "CATEGORY_LABEL": "F"}
{"COMPOUND": "CCN(CC)CCCN(C(=O)Cn1nnc(-c2ccc(OC)c(OC)c2)n1)C(C(=O)NC(C)(C)C)c1ccc(F)cc1 (centres unmarked)", "CATEGORY_LABEL": "F"}
{"COMPOUND": "O=C(NC(=S)Nc1cccc2c(O)cccc12)c1cccc(Br)c1", "CATEGORY_LABEL": "T"}

Check this compound for hERG current change (%, negative = inhibition) at 1uM at or above -10%: CC(=O)Nc1ccc(S(=O)(=O)NC2(C(F)(F)F)NC(=O)N(c3ccccc3F)C2=O)cc1 (centres unmarked)
T

Confirm if hERG current change (%, negative = inhibition) at 1uM reported for the compound CCN(CC)CCOC(=O)C(Cc1ccco1)Cc1cccc2ccccc12.O=C(O)C(=O)O (centres unmarked) is -10% or above.
F

Kindly determine if hERG current change (%, negative = inhibition) at 1uM recorded for CCNC(=S)N1CCN(Cc2ccccc2)CC1.O=C(O)C(=O)O is above or exactly -10%.
T
